# log10 GI50 annotations
Test system: 2008
PROTOCOL SUMMARY: 50% Growth inhibitory concentration( GI 50 ) by using 2008 human ovarian carcinoma cell lines.
Format: functional
METRIC: log10 GI50 (log10 of the value in nM)

COMPOUND: C=CC[C@@H](CC/C(C)=C/C=C/CC/C=C\[C@@H]1CSC([C@@H]2C[C@@H]2C)=N1)OC
OBS VALUE: 1.54
//
COMPOUND: C=CC[C@@H](CC/C(C)=C/C=C/CC/C=C\[C@@H]1COC(C(C)(C)C)=N1)OC
OBS VALUE: 2.65
//
COMPOUND: C=CC[C@@H](CC/C(C)=C/C=C/CC/C=C\[C@@H]1CSC(C(C)(C)C)=N1)OC
OBS VALUE: 2.34
//
COMPOUND: COc1cc(/C=C/CC/C=C/C=C(\C)CCC(O)c2cccs2)cc(OC)c1OC (stereo not drawn)
OBS VALUE: 4.32
//
COMPOUND: COc1cc(/C=C\CC/C=C/C=C(\C)CCC(O)c2cccs2)cc(OC)c1OC (stereo not drawn)
OBS VALUE: 2.45
//
COMPOUND: C=CC[C@@H](CC/C(C)=C/C=C/CC/C=C\c1csc(C(C)(C)C)n1)OC
OBS VALUE: 2.48
//
COMPOUND: COc1cc(CCCCCCCC(C)CCC(O)c2cccs2)cc(OC)c1OC (stereo not drawn)
OBS VALUE: 4.41

---

# IC50 annotations
TARGET UNDER TEST: Tubulin (Bos taurus)
PROTOCOL SUMMARY: Inhibition of tubulin polymerization of purified bovine brain tubulin
METRIC: IC50 (µM)

SMILES ENTRY: C=CC[C@@H](CC/C(C)=C/C=C/CC/C=C\[C@@H]1CSC([C@H]2C[C@@H]2C)=N1)OC
UNIT LABEL: µM
QUALIFIER SIGN: =
OBS VALUE: 0.77
--
SMILES ENTRY: C=CC[C@@H](CC/C(C)=C/C=C\CC/C=C\[C@@H]1CSC([C@@H]2C[C@@H]2C)=N1)OC
UNIT LABEL: µM
QUALIFIER SIGN: =
OBS VALUE: 0.82
--
SMILES ENTRY: CC(C)=C/C=C/CC/C=C\[C@@H]1CSC([C@@H]2C[C@@H]2C)=N1
UNIT LABEL: µM
QUALIFIER SIGN: >
OBS VALUE: 50
--
SMILES ENTRY: C=CC[C@@H](CC/C(C)=C/C=C/CC/C=C\[C@@H]1CSC([C@H]2C[C@H]2C)=N1)OC
UNIT LABEL: µM
QUALIFIER SIGN: =
OBS VALUE: 2.1

---

Test system: A2780
PROTOCOL SUMMARY: Tested for colchicine binding inhibition, using human ovarian cancer cell lines (at 5 uM )
Format: functional
METRIC: inhibition at 5 µM (%)

COMPOUND: C=CC[C@@H](CC/C(C)=C/C=C/CC/C=C\[C@@H]1CSC([C@H]2C[C@H]2C)=N1)OC
UNIT LABEL: %
QUALIFIER SIGN: =
OBS VALUE: 48

COMPOUND: C=CC[C@H](CC/C(C)=C/C=C/CC/C=C\[C@@H]1CSC([C@@H]2C[C@@H]2C)=N1)OC
UNIT LABEL: %
QUALIFIER SIGN: =
OBS VALUE: 56

COMPOUND: CCC[C@@H](CC/C(C)=C/C=C/CCCCC1CSC([C@@H]2C[C@@H]2C)=N1)OC (some centres undefined)
UNIT LABEL: %
QUALIFIER SIGN: =
OBS VALUE: 1

COMPOUND: C=CC[C@@H](CC/C(C)=C/C=C/CC/C=C\[C@@H]1CSC([C@H]2C[C@@H]2C)=N1)OC
UNIT LABEL: %
QUALIFIER SIGN: =
OBS VALUE: 88

COMPOUND: COc1cc(/C=C\CC/C=C/C=C(\C)CCC(O)c2cccs2)cc(OC)c1OC (centres undefined)
UNIT LABEL: %
QUALIFIER SIGN: =
OBS VALUE: 39

COMPOUND: C=CCC1(CC/C(C)=C/C=C/CC/C=C\[C@@H]2CSC([C@@H]3C[C@@H]3C)=N2)OCCO1
UNIT LABEL: %
QUALIFIER SIGN: =
OBS VALUE: 92

COMPOUND: COc1cc(/C=C/CC/C=C/C=C(\C)CCC(O)c2cccs2)cc(OC)c1OC (centres undefined)
UNIT LABEL: %
QUALIFIER SIGN: <
OBS VALUE: 10

COMPOUND: C=CC[C@@H](CC/C(C)=C/C=C/CC/C=C\c1coc(C(C)(C)C)n1)OC
UNIT LABEL: %
QUALIFIER SIGN: <
OBS VALUE: 10

COMPOUND: C=CC[C@@H](CC/C(C)=C/C=C/CC/C=C\[C@@H]1COC(C(C)(C)C)=N1)OC
UNIT LABEL: %
QUALIFIER SIGN: <
OBS VALUE: 10

---

TARGET UNDER TEST: Tubulin (Bos taurus)
PROTOCOL SUMMARY: Inhibition of tubulin polymerization of purified bovine brain tubulin
METRIC: IC50

SMILES ENTRY: C=CC[C@@H](CC/C(C)=C/C=C/CC/C=C\[C@@H]1CSC([C@@H]2C[C@@H]2C)=N1)OC(=O)c1ccccc1
METRIC: IC50
OBS VALUE: > 80 µM
//
SMILES ENTRY: CCCCCCCCCCCC/C=C\[C@@H]1CSC([C@@H]2C[C@@H]2C)=N1
METRIC: IC50
OBS VALUE: > 50 µM
//
SMILES ENTRY: C=CC[C@@H](CC/C(C)=C/C=C/CCCO)OC
METRIC: IC50
OBS VALUE: > 80 µM
